Listing: growth inhibition of selected compounds
assay: NCI Yeast Anticancer Drug Screen. Data for the mec2-1 strain (AID 157); conditions: S. cerevisiae mec2-1 strain, at 50.0 µM (retest, dose inferred, filed as 5.0), active compounds read high
The panel holds about 79,000 compounds, 15% with a hit somewhere; the sample as a whole holds those more often.
# number only, unit % dropped from output

// below: answered compounds
O=Nc1c(NO)c2ccccc2c2ccccc12	91
CC(CCC(=O)O)[C@H]1CCC2[C@H]3C(CC[C@@]21C)[C@@]1(C)CCC(O)C[C@H]1C[C@@H]3O (stereo partly drawn)	56

We next turn to a different compound, shown below.
growth inhibition reported for this compound CN(C)CC(O)c1cc(-c2ccc(Cl)cc2)nc2c(Cl)cc(Cl)cc12 (stereo not drawn) : 99

---

assay: NCI Yeast Anticancer Drug Screen. Data for the mec2-1 strain (AID 157); conditions: S. cerevisiae mec2-1 strain, at 50.0 µM (retest, dose inferred, filed as 5.0)
This is part of a sample that, as a whole, favours compounds with a hit. Of some 79,000 tested, about 15% had one in any assay. Calls of active or inactive are those of the source. Rule as the data show it: active = growth inhibition above about 70%; inactive = the rest.
Could you please pick one outcome from this set? True for active, False for inactive

CCN(CC)CCO/N=C1\CC[C@H]2[C@@H]3CCc4cc(OC)ccc4[C@H]3CC[C@]12C	True

GET /call?item= c1csc(CNCc2cccs2)c1 returns the recorded outcome of this test.
False

Could you please tell me the result logged for CC1C(=O)C(C)C(c2ccccc2)N(C)C1c1ccccc1 (stereo not given) in this assay?
True

I'd appreciate the recorded outcome for CN1C/C(=C\c2ccc(Cl)cc2)C(=O)/C(=C/c2ccc(Cl)cc2)C1 from this test.
True

GET /call?item= COc1ccc(I)c(C=NC2CCCCC2)c1C returns the recorded outcome of this test.
True

---

Experiment: NCI Yeast Anticancer Drug Screen. Data for the cln2 rad14 strain (AID 165);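 also: 0% = growth equal to vehicle treated cultures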
Conditions: S. cerevisiae cln2 rad14 strain, at 5.0 µM (retest, dose inferred, filed as 0.5)
Experimental: Growth inhibition of yeast strains with defined genetic alterations is measured as a screen for potential anti-cancer activity. Selected strains with alterations in DNA damage repair or cell cycle control were exposed to compounds and growth inhibition was measured relative to vehicle treated controls. The strain used in this assay is cln2 rad14
The panel holds about 79,000 compounds, 15% with a hit somewhere; the sample as a whole holds those more often. Activity calls are given as the source filed them. No stated cut-off is given here; in the data, active means growth inhibition above about 70%; inactive means the rest.
Please reply with one of these outcomes: 1.0 for active, 0.0 for inactive

Below are worked cases with known answers.
NC(=O)N/N=C(/Cc1nc2ccccc2nc1C/C(=N/NC(N)=O)c1cccc2ccccc12)c1cccc2ccccc12	0.0
OC(C1CCCCN1)C1CC(c2ccccc2)Nc2c(Cl)cc(Cl)cc21 (stereo not given)	0.0
CN(C)CCN(C)CCC(=O)/C=C/c1ccccc1	1.0
CCCOCCC#N	0.0

Which outcome was entered for the molecule CCOc1c(N=Nc2ccccc2Cl)c(-c2ccccc2)nn1C(=S)S in this test?
0.0

---

Test: NCI Yeast Anticancer Drug Screen. Data for the sgs1 mgt1 strain (AID 161);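 also: 0% = growth of cultures given vehicle only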
Conditions: S. cerevisiae sgs1 mgt1 strain, at 50.0 µM, active compounds read high
Experimental: Growth inhibition of yeast strains with defined genetic alterations is measured as a screen for potential anti-cancer activity. Selected strains with alterations in DNA damage repair or cell cycle control were exposed to compounds and growth inhibition was measured relative to vehicle treated controls. The strain used in this assay is sgs1 mgt1
About 79,000 compounds went through this panel and 15% of them were active in at least one assay; those are over-represented in the sample as a whole. Activity calls are given as the source filed them. Cut-off read from the data, not from the text of the source: active = growth inhibition above about 70%; inactive = the rest.
measured_metric: growth inhibition

O=C(SC(O)c1ccc(Cl)cc1)c1ccccc1 (stereo not drawn)	85.3% (active)

Lab note: O=C1CCCCC1Sc1ccc(Cl)cc1 (stereo not drawn) gave growth inhibition of 96.3% (active)

For reference, reported growth inhibition for CCCCC1C(=O)N2c3ccccc3-c3ccccc3N2C1=O stands at 43.2% (inactive)

---

Here, each record is paired with measured growth inhibition data.
assay: NCI Yeast Anticancer Drug Screen. Data for the bub3 strain (AID 167); details: S. cerevisiae bub3 mutant strain, at 50.0 µM, active compounds read high
About 79,000 compounds went through this panel and 15% of them were active in at least one assay; those are over-represented in the sample as a whole.
Give the number; % is assumed, so skip it.

COc1ccc2c(c1)sc(/C=C/c1ccc(O)c3ncccc13)[n+]2C	89.9
CCCCCCCCCC(C)CC(=O)NCCCN(C)CCCCN(C)C (configuration not stated) (tested in a mixture with another compound)	90.2
COC1/C=C\C=C(/C)C(=O)Nc2cc3nc4cc(Br)ccc4oc-3c(c2=O)CC(C)CC(OC)C(O)C(C)/C=C(\C)C1OC(N)=O (configuration not stated)	91.8
[N-]=[N+]=Nc1c(-c2ccccc2)c(Cl)nc2ccccc12	87.4
COC(=O)c1nnn(-c2cccc(C(F)(F)F)c2)c1C(=O)c1ccc(Cl)c(Cl)c1	89.4

The reported value for CC(=O)OC1C(O)C(C)OC(OC(=O)C2CCC3C(C2)OC2(CC(OC(=O)/C=C/c4ccccc4)C(C)CO2)C32CO2)C1OC1OC(C)C(O)C(O)C1O (configuration not stated) in terms of growth inhibition is 88

The measured growth inhibition associated with Nc1nc(-c2cccnc2)nc(N)c1N=O reads 91.1

---

assay: NCI Yeast Anticancer Drug Screen. Data for the mec2-1 strain (AID 157); details: S. cerevisiae mec2-1 strain, at 5.0 µM (retest, dose inferred, filed as 0.5), active compounds read high
The panel holds about 79,000 compounds, 15% with a hit somewhere; the sample as a whole holds those more often.
Reported growth inhibition is given for each of the following molecules.
Field: numeric (%). Do not append units.

Example molecules with recorded growth inhibition:
CCCCCCCCN(CCCCCCCC)CC(O)c1cc(-c2ccc(Cl)cc2)nc2c(Cl)cccc12 (stereo not given)	-1
CC(/C=N/NS(=O)(=O)c1ccc(C)cc1)=C(c1ccccc1)c1ccccc1	35
Cc1cccc(/C=N\OCCc2ccccc2)n1	-6
Cc1ccc(N=Nc2c(-c3ccccc3)nn(C(=S)S)c2-c2ccccc2)cc1	9

Query O=c1c2[nH]c3cccc(Cl)c3c2cnn1-c1ccc(F)cc1 yields growth inhibition of 2

The recorded growth inhibition for entry O=[N+]([O-])/C=C/c1cc2ccccc2[nH]1 equals -6

Looking up Oc1cc(Br)cc2cc(Br)cnc12 , I found its growth inhibition recorded as 89

Entry CC(C)N=Cc1cc(Br)cc(Br)c1O.CC(C)N=Cc1cc(Br)cc(Br)c1O.[Co] , growth inhibition reported as 54

Just so you know, measured growth inhibition for Clc1ccc2c(NC3CCC(N4CCCCC4)CC3)ccnc2c1 (stereo not given) came out at 90

// field: growth inhibition; key: COc1ccc(/C(Cl)=C(\C=O)c2ccc(Cl)c(Cl)c2)cc1 ; value = 8

---

test: NCI Yeast Anticancer Drug Screen. Data for the rad50 strain (AID 155);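 also: 0% = growth of vehicle-only cultures of the same strain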; conditions: S. cerevisiae rad50 strain growth inhibition; at 50.0 µM; active compounds read high
The panel holds about 79,000 compounds, 15% with a hit somewhere; the sample as a whole holds those more often.
Returns one of 1 or 0; 1 when growth inhibition is >= 70%.

Worked examples, 5 compounds total:
O=C1c2ccccc2-c2ccc(N3C(=O)C4CCCCC4C3=O)cc21 (stereo not drawn)	0
CCCCCCCCCCCOc1cccc(N2C(N)=NC(N)=NC2(C)C)c1	1
O=C(O)c1ccc2c(Br)ccc3c2c1CC3	1
CCCc1nc2c(nc1C)C(=O)C=CC2=O	1
Nc1ccccc1SC(C[N+](=O)[O-])c1ccc2c(c1)OCO2 (stereo not drawn)	1

API: above_or_equal(metric=growth inhibition, cutoff=70%) for item C1=C(c2ccccc2)C(c2ccccc2)C(c2ccccc2)C/C1=N/OCCN1CCCC1 (stereo not drawn)
1

Is growth inhibition at least 70%? Consider Cc1cc(CC(O)(C(F)(F)F)C(F)(F)F)cc(CC(O)(C(F)(F)F)C(F)(F)F)n1
1

# bool: growth inhibition of COC(=O)/C(C#N)=C1\NC(=O)CC(c2ccccc2)C1C#N (stereo not drawn) >= 70%
0

---

Assay: NCI Yeast Anticancer Drug Screen. Data for the rad50 strain (AID 155);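 also: 0% = growth of vehicle-only cultures of the same strain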
Conditions: S. cerevisiae rad50 strain growth inhibition; at 50.0 µM; active compounds read high
Method: Growth inhibition of yeast strains with defined genetic alterations is measured as a screen for potential anti-cancer activity. Selected strains with alterations in DNA damage repair or cell cycle control were exposed to compounds and growth inhibition was measured relative to vehicle treated controls. The strain used in this assay is rad50
About 79,000 compounds went through this panel and 15% of them were active in at least one assay; those are over-represented in the sample as a whole.
measured_metric: growth inhibition (%)
# number only, unit % dropped from output

The examples below pair each entry with its known result.
O=C1c2ccccc2C(=O)c2c(/C=C\N3CCCCC3)ccnc21	87.7
CN(C)c1ccc(/C=C/c2nc3ccccc3[nH]2)cc1	54

Memo: C#CCN(N=O)C(=O)NCCCC(NC(C)=O)C(=O)NCc1ccccc1 (configuration not stated) , reported growth inhibition: 78.9

growth inhibition reading for CCOC(=O)CC1(C)C(=O)CCCC1=O : -3.7

The molecule listed as Cc1ccc(SCC#CC#CCS(=O)c2ccc(C)cc2)cc1 (configuration not stated) shows growth inhibition equal to 98.3

The value of growth inhibition measured for the molecule Cc1cc(NC(=S)SCc2ccc3c(c2)OCO3)ccc1Cl turned out to be 91.5

Item: CCCC(C(=O)OCCNC1CCCCC1)c1ccccc1 (configuration not stated) | growth inhibition: 71.3
